Target desc: cholesteryl ester transfer protein (CETP) (Homo sapiens, UniProt P11597)
Construct: the source of CETP was human lipoprotein-deprived serum (LPDS)
Sequence (P11597 18-493): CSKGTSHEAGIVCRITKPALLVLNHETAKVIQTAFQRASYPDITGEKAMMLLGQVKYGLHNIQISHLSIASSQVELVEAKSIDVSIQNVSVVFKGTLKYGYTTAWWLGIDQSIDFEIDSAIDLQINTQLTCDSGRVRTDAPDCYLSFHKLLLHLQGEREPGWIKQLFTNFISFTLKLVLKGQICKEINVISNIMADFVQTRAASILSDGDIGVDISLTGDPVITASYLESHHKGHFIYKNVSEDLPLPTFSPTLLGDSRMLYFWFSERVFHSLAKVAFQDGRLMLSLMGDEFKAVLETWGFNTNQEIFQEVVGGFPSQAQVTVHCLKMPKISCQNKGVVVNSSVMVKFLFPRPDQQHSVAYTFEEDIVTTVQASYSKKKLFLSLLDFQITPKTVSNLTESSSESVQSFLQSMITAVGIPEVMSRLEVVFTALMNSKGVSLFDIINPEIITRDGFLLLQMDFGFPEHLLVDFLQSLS
Assay: CETP inhibition SPA assay in the presence of plasma (CETP source: human lipoprotein-deprived serum)
Recorded conditions: CETP source human lipoprotein-deprived serum (LPDS), radiolabeled cholesteryl ester transfer from HDL donor to biotin-labeled LDL acceptor
Result type: IC50 (nM)
Form entry: value (nM) — number only.

Illustrative cases are given below, each with its answer.
1) C[Si](C)(C)c1ccc(CN(CCc2cccc(OC(F)(F)F)c2)C(=O)c2c(F)c(Cl)cc3cc[nH]c23)cc1 | 21
2) CC(C)[Si](C)(C)c1ccc(CN(CCc2cccc(C(F)(F)F)c2)C(=O)c2c(F)c(Cl)cc3cc[nH]c23)cc1 | 44

--- query ---
Read the entry C[Si](C)(C)c1ccc(CN(CCc2cccc(C(F)(F)F)c2)C(=O)c2c(F)c(Cl)cc3cc[nH]c23)cc1 and write its reported IC50.
16
